All values here come from PubChem BioAssay (NCI).

test system: UO-31 renal; test: NCI tumour cell line growth inhibition, 48 h
Below: a set of entries, each annotated with reported TGI.

compound | TGI
Clc1ccc(Cl)c(Nc2ccnc(SCc3ccccc3)n2)c1 | > 100 µM
O=C1c2cc3c(cc2CC12Cc1cc4c(cc1C2=O)CCC4)CCCC3 (stereo unspecified) | > 100 µM
COC(=O)C12C3C4C5(C(=O)OC)C(C1C35C(=O)N(C(C)C)C(C)C)C42C(=O)N(C(C)C)C(C)C (stereo unspecified) | > 50 µM

*Q* Reported TGI for `COc1ccccc1/C=C/c1cnccn1` : what is it?
*A* > 10 µM

*Q* Reported TGI for `COc1cc(/C=C2\C[C@H]3[C@@H]4CC=C5C[C@@H](O)CC[C@]5(C)[C@H]4CC[C@]3(C)C2=O)cc(OC)c1OC` : what is it?
*A* > 100 µM

*Q* Reported TGI for `CC(=O)O[C@@H]1C[C@]2(C(C)C)O[C@@]1(C)[C@@H]1CCC(C)=C1[C@@H]2OC(=O)/C=C/c1ccccc1` : what is it?
*A* > 100 µM

----------
tested on: XF 498 CNS; assay: NCI tumour cell line growth inhibition, 48 h
Below: a set of entries, each annotated with reported TGI.

compound | testTarget | value
CCCCCCCCCc1cc(=O)c2c(O)cccc2o1 | XF 498 CNS | > 100 µM
CCOC(=O)c1[nH]c(COC(C)=O)c(CCCOC(C)=O)c1CCCOC(C)=O | XF 498 CNS | > 100 µM
COc1c(C)c2c(c(C)c1Cl)Oc1c(C=O)c(O)c(Cl)c(C)c1C(=O)O2 | XF 498 CNS | 22.7 µM
Clc1ccc(-c2c(C3=NCCN3)nnn2-c2ccc(Cl)cc2)cc1 | XF 498 CNS | 29.5 µM
COC(=O)C(=C/c1ccc(OC)cc1)/C(C(=O)O)=C(/C)c1ccccc1 | XF 498 CNS | > 100 µM

Moving on to another compound below.
*Q* Reported TGI for CCOC(=O)C(N=Nc1ccc(S(N)(=O)=O)cc1)C(C)=O (stereo unspecified) : what is it?
*A* > 100 µM

----------
system: NCI-H226 lung; assay: NCI tumour cell line growth inhibition, 48 h
readoutLabel: TGI

The following compounds have reported results that may help.
compound | TGI
Cc1cn2c(=O)c3ccccc3nc2s1 | > 100 µM
CSC1=C(SC)SC(=C2SC3=C(SC(=C4SCCS4)S3)S2)S1 | > 100 µM
COc1ccc2c(c1)CN1C(=N2)CSC1c1cc([N+](=O)[O-])ccc1Cl (stereo not given) | > 100 µM
COc1ccccc1NC(=O)C1=C(C)NC(C)=C(C(=O)Nc2ccccc2OC)C1c1ccc([N+](=O)[O-])cc1 | > 100 µM

*Q* Reported TGI for Cc1cn(C2CC(ON3C(=O)c4ccccc4C3=O)C(CO)O2)c(=O)[nH]c1=O (stereo not given) : what is it?
*A* > 10 µM

*Q* Reported TGI for `CN(Nc1cc(=O)[nH]c(=O)[nH]1)c1ccccc1` : what is it?
*A* > 100 µM

*Q* Reported TGI for `O=C(O)c1ccc(NNc2cc(=O)[nH]c(=O)[nH]2)cc1` : what is it?
*A* > 100 µM

*Q* Reported TGI for `COC(=O)c1ccc(/C=C2\N=C(C)OC2=O)cc1` : what is it?
*A* > 100 µM

*Q* Reported TGI for COc1cc2c(cc1OC)C(O)[C@H](Br)C(C)(C)O2 (stereo not given in full) : what is it?
*A* > 100 µM

*Q* Reported TGI for `CC(=O)N(C(=O)CC(=O)N/N=C\c1ccc(Br)c(N(CCC#N)CCC#N)c1)c1ccc(Cl)cc1` : what is it?
*A* > 100 µM

----------
test system: DU-145 prostate; assay: NCI tumour cell line growth inhibition, 48 h
readoutLabel: TGI

compound | testTarget | value
O=C(CCCN1CC=C(n2c(=O)[nH]c3ccccc32)CC1)c1ccc(F)cc1 | DU-145 prostate | > 100 µM

*Q* Reported TGI for DU-145 prostate, given `CC1(C)c2ccccc2C(=O)C12CCC(=O)CC2` ?
*A* > 100 µM

*Q* Reported TGI for DU-145 prostate, given `CN(C)C(=O)NCCN1CCCCCc2ccccc21` ?
*A* > 100 µM

*Q* Reported TGI for DU-145 prostate, given `CN(Nc1cc(=O)[nH]c(=O)[nH]1)c1ccccc1` ?
*A* > 100 µM

*Q* Reported TGI for DU-145 prostate, given CCC1c2[nH]c3ccccc3c2C[C@H]2C(=O)NC(COC(C)(C)C)C(=O)N12 (some centres not stated) ?
*A* > 100 µM

*Q* Reported TGI for DU-145 prostate, given `Clc1ccc(Cl)c(Nc2ccnc(SCc3ccccc3)n2)c1` ?
*A* > 100 µM

*Q* Reported TGI for DU-145 prostate, given CCN1C(=O)N(CC)C2C1NC(=S)N2/N=C/C=C/c1cccs1 (configuration not stated) ?
*A* > 100 µM

*Q* Reported TGI for DU-145 prostate, given `O=C(O)c1cccc(OCCO)c1` ?
*A* > 100 µM

*Q* Reported TGI for DU-145 prostate, given `CCOC(=O)N1CCN(C(=O)c2ccc(C(F)(F)F)nc2Nc2cc(Cl)ccc2C)CC1` ?
*A* > 100 µM

*Q* Reported TGI for DU-145 prostate, given CCOC(=O)CC1c2ccc(O)cc2OC(=O)C1c1ccc([N+](=O)[O-])cc1 (configuration not stated) ?
*A* > 100 µM

*Q* Reported TGI for DU-145 prostate, given `CNC(=S)N/N=C(C)\C(=N/NC(=S)NC)c1ccccc1` ?
*A* > 100 µM

----------
tested on: HOP-62 NSCLC; assay: NCI tumour cell line growth inhibition, 48 h; in the data active = GI50 below about 0.43 µM; inactive = the rest
Hi there, use one of these labels in your reply, thanks! yes (active), no (inactive)

Reference set, count: 3
molecule | label
Fc1ccc(Nc2cc(-n3nnc4ccccc43)nc3ccccc23)cc1 | no
Cc1[nH]n(-c2cccc(Cl)c2)c(=O)c1/C=C1\C=Nc2ccc(Br)cc21 | no
CC(=O)Oc1ccccc1C(=O)N=C1[Se]CCN1C(=O)c1ccccc1OC(C)=O | no

*Q* Please state the recorded outcome for this molecule: `Cc1n(Cc2ccc3ccccc3c2)cc[n+]1Cc1ccc2ccccc2c1`
*A* no

*Q* Please state the recorded outcome for this molecule: `Cc1cc(NC(=O)c2ccc(C)c(Nc3nccc(-c4cccnc4)n3)c2)cc(-n2cnc(C)c2)c1`
*A* no

*Q* Please state the recorded outcome for this molecule: `O=C(CN(C1CCCCC1)C1CCCCC1)Nc1ccc(S(=O)(=O)c2ccc(NC(=O)CN(C3CCCCC3)C3CCCCC3)cc2)cc1`
*A* no

*Q* Please state the recorded outcome for this molecule: `C#C[C@]1(O)CC[C@H]2[C@@H]3CC=C4c5sc(Nc6ccccc6)nc5CC[C@]4(C)[C@H]3CC[C@@]21C`
*A* no

*Q* Please state the recorded outcome for this molecule: CCOC(=O)C1=C(C)N(N)C(=S)NC1c1ccc(C)cc1 (stereo not given)
*A* no

*Q* Please state the recorded outcome for this molecule: COC(=O)[C@@H](NC(=O)[C@@H](OC)[C@@H]1Cc2cc3cc(OC4CC(OC5CC(O)C(O)C(C)O5)C(O)C(C)O4)c(C)c(O)c3c(O)c2C(=O)[C@H]1OC1CC(OC2CC(OC3CC(C)(O)C(O)C(C)O3)C(O)C(C)O2)C(O)C(C)O1)C(C)C (stereo not given in full)
*A* yes

*Q* Please state the recorded outcome for this molecule: Nc1nc(Br)nc2c1ncn2C1CC(O)C(CO)O1 (stereo not given)
*A* no

----------
system: OVCAR-4 ovarian; test: NCI tumour cell line growth inhibition, 48 h
readoutLabel: TGI

The following compounds have reported results that may help.
compound | TGI
O=[N+]([O-])c1ccc(-n2nnc(C3=NCCCN3)c2-c2ccc(Cl)cc2)cc1 | > 100 µM
CC12CCC(C(=O)OC1=O)C2(C)C (stereo unspecified) | > 100 µM
CCN(CC)CCNCC(=O)Oc1ccc(/C=C/C(=O)CC(=O)/C=C/c2ccc(OC(=O)CNCCN(CC)CC)c(OC)c2)cc1OC | > 100 µM

*Q* Reported TGI for `O=C(c1ccccc1)c1c(-c2ccccc2)[nH]n(-c2ccc([N+](=O)[O-])cc2)c(=O)c1=O` : what is it?
*A* > 100 µM

*Q* Reported TGI for `O=C(C(=O)N1CCc2ccccc21)c1c[nH]c2ccccc12` : what is it?
*A* > 10 µM

*Q* Reported TGI for N#CC(NNC(=O)Cc1ccccc1)c1ccccc1O (stereo unspecified) : what is it?
*A* > 100 µM

----------
system: SF-295 CNS; assay: NCI tumour cell line growth inhibition, 48 h
readoutLabel: TGI

The following compounds have reported results that may help.
compound | TGI
N#C/C(=C\c1ccc(O)c(O)c1)C(N)=O | > 100 µM
COC(=O)/C=C/C1C(C(=O)OC)C2(C(=O)OC)CCC1(C(=O)OC)N2 (stereo not drawn) | > 100 µM
Cc1cc(NC(=O)c2ccc(C)c(Nc3nccc(-c4cccnc4)n3)c2)cc(-n2cnc(C)c2)c1 | 12.2 µM

*Q* Reported TGI for `O=C(/C=C/c1c(O)ccc2ccccc12)c1ccc2ccccc2c1` : what is it?
*A* > 100 µM

*Q* Reported TGI for `NC1CCCC[C@H]1N.N[C@@H]1CCCC[C@@H]1N.O=C(P(=O)([O-])[O-])P(=O)([O-])[O-].[Pt+4].[Pt+4]` : what is it?
*A* > 100 µM

*Q* Reported TGI for O=C(CN1CCCCC1)N1CCc2c([nH]c3ccccc23)C1c1cccnc1 (stereo not drawn) : what is it?
*A* > 100 µM

*Q* Reported TGI for `CN1CCc2c(Sc3ccc(C(=O)NO)cc3)c3ccccc3n2C1` : what is it?
*A* 4.84 µM

*Q* Reported TGI for `Cc1cc(C)cc(C(=N)c2ccccc2Cc2cccc3ccccc23)c1` : what is it?
*A* 25.5 µM

*Q* Reported TGI for `c1ccc2c3ccn4cc5c(cc4c-3nc2c1)CCCC5` : what is it?
*A* 10.5 µM

*Q* Reported TGI for `O=C(CCC/C(CC(=O)c1ccc(Br)cc1)=N\O)Nc1ccccc1` : what is it?
*A* > 100 µM

*Q* Reported TGI for CCCCN1C=CN2c3nc4cc(C)c(C)cc4n3C(C(=O)OC)=C(C(=O)OC)C12 (stereo not drawn) : what is it?
*A* > 100 µM
